# tgt: TYK2-JH2 (aa 575-869, in-house) protein (Homo sapiens, UniProt P29597)
# Construct: TYK2-JH2 (aa 575-869, in-house) protein
# Sequence (P29597 575-869): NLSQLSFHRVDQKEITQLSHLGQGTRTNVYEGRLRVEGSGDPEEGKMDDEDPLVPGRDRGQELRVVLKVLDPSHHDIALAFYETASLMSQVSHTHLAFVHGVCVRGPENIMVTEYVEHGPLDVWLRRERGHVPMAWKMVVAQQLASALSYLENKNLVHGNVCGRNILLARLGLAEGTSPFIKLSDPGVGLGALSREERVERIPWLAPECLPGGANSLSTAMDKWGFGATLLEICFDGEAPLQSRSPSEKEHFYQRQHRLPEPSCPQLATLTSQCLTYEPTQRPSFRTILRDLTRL
# procedure text: TYK2-JH2 biochemical assay (HTRF, blocking of TYK2-JH2 protein with its probe)
# experimental context: HTRF, 0.2 nM recombinant TYK2-JH2, Probe 1
metric: pIC50
Answers are plain numbers, as −log10 of the molar value.

{"molecule": "CNC(=O)c1nnc(NC(=O)C2CC2)cc1Nc1nc2c(F)cc(N3CCC3)cn2n1 [Example N2]", "tgt": "TYK2-JH2 (aa 575-869, in-house) protein (Homo sapiens, UniProt P29597)", "pIC50": 10.20}
{"molecule": "CNC(=O)c1nnc(NC(=O)C2CC2)cc1Nc1nc2ccc(N3CC(N(C)C)C3)cn2n1 [Example E5]", "tgt": "TYK2-JH2 (aa 575-869, in-house) protein (Homo sapiens, UniProt P29597)", "pIC50": 10.19}
{"molecule": "CNC(=O)c1nnc(NC(=O)C2CC2)cc1Nc1nc2ccc(C(=O)N3CCC3)cn2n1 [Example O1]", "tgt": "TYK2-JH2 (aa 575-869, in-house) protein (Homo sapiens, UniProt P29597)", "pIC50": 9.77}

Record pIC50 per entry; entries follow.
1. CNC(=O)c1nnc(NC(=O)C2CC2)cc1Nc1nc2ccc(N3CC(C(=O)N4CCSC4)C3)cn2n1 [Example Q1]
2. CNC(=O)c1nnc(NC(=O)C2CC2)cc1Nc1nc2ccc(C3CN(C(C)=O)C3)cn2n1 [Example L2]

A:
1: 9.80; 2: 10.09

Give measured pIC50 for every item shown.
1. CNC(=O)c1nnc(NC(=O)C2CC2)cc1Nc1nc2ccc(N3CC(N4CCCCC4)C3)cn2n1 [Example E14]
2. CNC(=O)c1nnc(NC(=O)C2CC2)cc1Nc1nc2c(C)cc(N3CCC3)cn2n1 [Example N3]

A:
1. 9.96
2. 10.05
